- Test system: TK-10
- testProtocol: NCI tumour cell line growth inhibition, 48 h
Active and inactive are the calls of the source. No stated cut-off is given here; in the data, active = GI50 up to about 1.1 µM and inactive = higher.
endpointName: GI50

Consider the worked cases shown below.
{"columns": ["molecule", "testTarget", "GI50"],
 "data": [
  ["O=C(O)CSc1ccc2nc3ccccc3c(O)c2c1", "TK-10", "> 100 µM (inactive)"],
  ["O=C(O)Cn1ccnc1[N+](=O)[O-]", "TK-10", "> 100 µM (inactive)"],
  ["O=C1CSC(c2ccccc2O)N1c1ccc2c(c1)Oc1c(Cl)c3c(c(Cl)c1=N2)Oc1cc(N2C(=O)CSC2c2ccccc2O)ccc1N=3 (stereo unspecified)", "TK-10", "62.5 µM (inactive)"]
]}

Task item: Provide GI50 value for the following molecule: CC1(C)C(OC(=O)c2ccccc2)C[C@]23CCC[C@](C)(C[C@@H](O)C12)C3 (stereo partly specified)
Reply: 29.5 µM (inactive)

###

- System: IGROV-1
- testProtocol: NCI tumour cell line growth inhibition, 48 h
The source made the active and inactive calls. Rule as the data show it: active = GI50 up to about 1.1 µM and inactive = higher.
Respond only with the outcome that fits, drawn from Yes for active, No for inactive

{"columns": ["compound", "labelValue"],
 "data": [
  ["CO[C@@]12[C@H](COC(N)=O)C3=C(C(=O)C(C)=C(N)C3=O)N1C[C@@H]1N[C@@H]12 [MITOMYCIN]", "No"],
  ["O=C(NCCCCCCNC(=O)c1cccc2ccccc12)Nc1cccc2ccccc12", "No"]
]}

Task item: Tell me the recorded outcome of this test for N#CC1=C(N)n2c(s/c(=C\c3ccc(Cl)cc3)c2=O)=C(c2nc3ccccc3[nH]2)C1c1ccc(Cl)cc1 (stereo not drawn) .
Reply: No

Task item: Tell me the recorded outcome of this test for N#CSC#Cc1ccc(C#CSC#N)cc1 .
Reply: No

Task item: Tell me the recorded outcome of this test for CCOC(=O)C1(Cc2ccc3ccccc3c2)CCCCCN1 (stereo not drawn) .
Reply: No

Task item: Tell me the recorded outcome of this test for ClC1CCC2OOC1O2 (stereo not drawn) .
Reply: No

Task item: Tell me the recorded outcome of this test for COc1ccc(NC2=CC(=O)C(=O)c3ccccc32)nn1 .
Reply: No

Task item: Tell me the recorded outcome of this test for CCCc1cc(-c2ccc(-c3cc(CCC)c(C=O)[nH]3)s2)[nH]c1C=O .
Reply: No

Task item: Tell me the recorded outcome of this test for Cc1cc(Cl)ccc1NC(=O)C(=O)Cc1occc(=O)c1O .
Reply: No

Task item: Tell me the recorded outcome of this test for Cc1ccc(S(=O)(=O)NNC(=O)Nc2cccc(C(F)(F)F)c2)cc1 .
Reply: No

###

- Tested on: MOLT-4
- testProtocol: NCI tumour cell line growth inhibition, 48 h
Calls of active or inactive are those of the source. Cut-off read from the data, not from the text of the source: active = GI50 up to about 1.1 µM and inactive = higher.
Reported values of GI50 for individual entries

{"columns": ["compound", "endpointName", "result"],
 "data": [
  ["CCC1CN2CCc3c([nH]c4ccccc34)C2C[C@@H]1CC(=O)N(C)C (stereo partly drawn)", "GI50", "> 100 µM (inactive)"],
  ["Cc1ccc(S(=O)(=O)C2=c3ncccc3=C3C(=O)c4ccccc4C(=O)C32)cc1 (stereo not drawn)", "GI50", "> 100 µM (inactive)"],
  ["COc1ccccc1C(O)(c1ccccc1)C(O)(c1ccccc1)c1ccccc1OC (stereo not drawn)", "GI50", "48.1 µM (inactive)"],
  ["Cc1c(C(=O)/C=C/c2ccco2)[n+]([O-])c2ccccc2[n+]1[O-]", "GI50", "39.6 µM (inactive)"]
]}

Task item: Provide GI50 value for the following compound: COC(=O)c1c(C)nc(C)c(NO)c1-c1ccccc1C(F)(F)F
Reply: 26.1 µM (inactive)

Task item: Provide GI50 value for the following compound: NC(=O)C(Nc1c(Cl)cccc1Cl)c1cc2cc(Br)ccc2nc1Cl (stereo not drawn)
Reply: 20.7 µM (inactive)

Task item: Provide GI50 value for the following compound: N#CSC#Cc1ccc(C#CSC#N)cc1
Reply: 36.2 µM (inactive)

Task item: Provide GI50 value for the following compound: CC(=O)OC12/C(=N/O)CCCCCC1c1ccccc12 (stereo not drawn)
Reply: 25.4 µM (inactive)

Task item: Provide GI50 value for the following compound: CC1C2=CC=C(O2)C(C)(C)C2=CC=C(O2)C(C)(C)C2=CC=C(O2)C(C)(C)C2=CC=C1O2
Reply: > 100 µM (inactive)

###

- Tested on: HT-29
- testProtocol: NCI tumour cell line growth inhibition, 48 h
The source made the active and inactive calls. Cut-off read from the data, not from the text of the source: active = GI50 up to about 1.1 µM and inactive = higher.
endpointName: GI50

{"columns": ["compound", "GI50"],
 "data": [
  ["O=C(/C=C/c1c(O)ccc2ccccc12)c1cccc2ccccc12", "> 72.4 µM (inactive)"],
  ["CCCC[S+]([O-])CCC(N)C(=O)O (stereo unspecified)", "> 100 µM (inactive)"],
  ["COC(=O)C(=O)C(C#N)c1nc2ccccc2s1 (stereo unspecified)", "66.4 µM (inactive)"],
  ["COC(=O)[C@@H](Nc1ccccc1)[C@@]1(C(=O)OC)SC12c1ccccc1-c1ccccc12", "34.3 µM (inactive)"],
  ["C(=N\\c1ccc(-c2cc(-c3ccccc3)nc3ccc4ccccc4c23)cc1)/c1ccccc1", "7.87 µM (inactive)"]
]}

Let's switch to this compound now.
Task item: Provide GI50 value for the following compound: COc1ccccc1/C=C1/Sc2scc(CC(=O)Nc3ccccc3)[n+]2C1=O
Reply: 42 µM (inactive)

###

- System: SNB-75
- testProtocol: NCI tumour cell line growth inhibition, 48 h
Calls of active or inactive are those of the source. Cut-off read from the data, not from the text of the source: active = GI50 up to about 1.1 µM and inactive = higher.
endpointName: GI50

{"columns": ["cpdSmiles", "testTarget", "GI50"],
 "data": [
  ["COC(=O)NC1=NNC(=O)c2ccccc2N1", "SNB-75", "> 100 µM (inactive)"],
  ["O=C(O)Cn1ccnc1[N+](=O)[O-]", "SNB-75", "> 100 µM (inactive)"]
]}

Task item: Provide GI50 value for the following compound: Cc1cc(N(CCC#N)CCC#N)ccc1/C=C1N=C(/C=C/c2ccccc2)N(c2ccc(S(N)(=O)=O)cc2)C\1=O
Reply: > 100 µM (inactive)

###

Reported values of GI50 for individual entries
- Tested on: SNB-75
- testProtocol: NCI tumour cell line growth inhibition, 48 h
Active and inactive are the calls of the source. Cut-off read from the data, not from the text of the source: active = GI50 up to about 1.1 µM and inactive = higher.

Consider the worked cases shown below.
{"columns": ["compound", "result"],
 "data": [
  ["CCCN(CCC)C(=S)N/N=C/c1cccc(C)n1", "0.261 µM (active)"],
  ["O=c1[nH]nc(Cc2ccccc2)n1/N=C/c1ccc([N+](=O)[O-])cc1", "42 µM (inactive)"],
  ["NC(=S)N/N=C(\\CCC(=O)Nc1ccccc1[N+](=O)[O-])CC(=O)c1ccco1", "> 100 µM (inactive)"],
  ["CCOC(=O)c1c(NC(=S)Nc2ccc(C)cc2)sc2c1CCN(C)C2", "< 0.01 µM (active)"],
  ["NC(Cc1ccc(O)c(O)c1)P(=O)(O)O (configuration not stated)", "> 100 µM (inactive)"],
  ["COc1cc(N(C)C)c(OC)cc1/C=C\\c1ccnc2ccccc12", "2.57 µM (inactive)"]
]}

Task item: Provide GI50 value for the following compound: COc1ccc(C23OCC(Cc4cc(OC)c(OC)cc42)C3COC(C)=O)cc1OC (configuration not stated)
Reply: > 100 µM (inactive)

Task item: Provide GI50 value for the following compound: CC(=O)OC12/C(=N/O)CCCCCC1c1ccccc12 (configuration not stated)
Reply: 42.8 µM (inactive)

Task item: Provide GI50 value for the following compound: CC(=O)OCCOCCN1CCN(C2=C(Cl)C(=O)c3c(O)ccc(O)c3C2=O)CC1
Reply: 2.06 µM (inactive)

Task item: Provide GI50 value for the following compound: COc1cccc2c1C(=O)c1c(O)c3c(c(O)c1C2=O)C[C@@](O)(C(C)=O)CC3S(=O)(=O)O (some centres not stated)
Reply: > 50.5 µM (inactive)

Task item: Provide GI50 value for the following compound: CCCc1cc(-c2ccc(-c3cc(CCC)c(C=O)[nH]3)s2)[nH]c1C=O
Reply: > 100 µM (inactive)

Task item: Provide GI50 value for the following compound: O=[N+]([O-])c1cccc(C2=NOC3C4CCC(C4)C23)c1 (configuration not stated)
Reply: > 100 µM (inactive)

###

- Test system: NCI-H460
- testProtocol: NCI tumour cell line growth inhibition, 48 h
Activity calls are given as the source filed them. Cut-off read from the data, not from the text of the source: active = GI50 up to about 1.1 µM and inactive = higher.
Reported values of GI50 for individual entries

Consider the worked cases shown below.
{"columns": ["compound", "GI50"],
 "data": [
  ["CCCCCC(=O)OCC1(CO)C/C(=C\\CC(C(C)C)C(C)C)C(=O)O1 (stereo unspecified)", "42.3 µM (inactive)"],
  ["CCCc1cc(-c2ccc(-c3cc(CCC)c(C=O)[nH]3)s2)[nH]c1C=O", "5.2 µM (inactive)"]
]}

Task item: Write GI50 of O=C1C(Cl)=C(N2CCN(C3=C(Cl)C(=O)c4ccccc4C3=O)CC2)C(=O)c2ccccc21 ; system used: NCI-H460
Reply: 3.54 µM (inactive)

Task item: Write GI50 of N#CSC#Cc1ccc(C#CSC#N)cc1 ; system used: NCI-H460
Reply: 19.9 µM (inactive)

Task item: Write GI50 of CCCC[S+]([O-])CCC(N)C(=O)O (stereo unspecified) ; system used: NCI-H460
Reply: > 100 µM (inactive)

Task item: Write GI50 of O=C(CC(c1ccccc1)c1c(O)c2ccccc2oc1=O)c1ccccc1 (stereo unspecified) ; system used: NCI-H460
Reply: 65.5 µM (inactive)

Numbers sourced from ChEMBL document CHEMBL1201862.
